Form field: %Inh (one value per entry).
System: EPHA5
Settings: concentration: 1 μM, replicates: in singlicate; n = 1;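 note: KINOMEscan kinase panel screen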
Give the quantity in %, number only.

Guide cases for %Inh, answers given:
compound	measure.unit	measured.value
O=C(Nc1n[nH]c2nc(-c3ccc(O)cc3)ccc12)C1CC1	%	0
c1ccc(Oc2ccc(Nc3ccnc4cc(-c5ccc(CNCCN6CCOCC6)o5)ccc34)cc2)nc1	%	0
C[C@@H](Oc1cc(-n2cnc3cc(-c4ccnc(NCCS(C)(=O)=O)c4)ccc32)sc1C(N)=O)c1ccccc1Cl	%	0

Item under review: Cn1cc(-c2ccc3c(c2)CCN3C(=O)Cc2cccc(Cl)c2)c2c(N)ncnc21 . Reported %Inh? 0

Cool, now Nc1ncc(-c2ccc3nccc(-c4ccncc4)c3c2)cc1S(=O)(=O)N1CCOCC1 0

Cool, now COc1ccc(CNC(=O)NC2CCN(c3ccnc(Nc4ccc(F)cc4)n3)CC2)cc1 0

Cool, now Cl.Cl.NCC(NC(=O)c1cc(-c2ccccc2)c(-c2ccnc3[nH]ccc23)s1)c1ccccc1 (stereo not shown) 6

Cool, now Cc1ccc(F)c(C(=O)Nc2cccc(-c3nn4ccccc4c3-c3ccnc(Nc4cccc(F)c4)n3)c2)c1F 1

Cool, now Cc1ccc(S(=O)(=O)Nc2ccc(Nc3nccc(Nc4cccc5[nH]ncc45)n3)cc2)cc1 0

Cool, now CC(C)c1nc(-c2cccc(NS(=O)(=O)c3c(F)cccc3F)c2F)c(-c2ccnc(Nc3ccc(N4CCOCC4)nc3)n2)s1 0

###

Form field: %Inh (one value per entry).
Test system: RSK1(Kin.Dom.2-C-terminal)
Construct: gene RPS6KA1
Conditions: concentration: 1 μM, replicates: in singlicate; n = 1
Give the quantity in %, number only.

Guide cases for %Inh, answers given:
compound	%Inh / %
COc1ccc(CNC(=O)NC2CCN(c3ccnc(Nc4ccc(F)cc4)n3)CC2)cc1 [GSK1379788]	0
Nc1ncc(-c2cccnc2)c2scc(-c3ccc4c(c3)CCN4C(=O)Cc3ccccc3)c12 [GSK683281]	1
CN(C)S(=O)(=O)c1cc(-c2ccc3nccc(-c4cccc(S(N)(=O)=O)c4)c3c2)cnc1N [GSK1669921]	10
C[C@@H]1CC[C@@H](C(=O)Nc2ccccc2)CN1c1cc(-c2ccc3c(N)n[nH]c3c2)nc(N)n1 [GSK2286062]	3
Cc1ccc(C)c(NC(=O)NC2CCN(c3ccnc(Nc4ccc(F)cc4)n3)C2)c1 (centres unmarked) [GSK1379720]	0

Item under review: COc1cccc(C(=O)Nc2cccc(Oc3ccc4nc(NC(=O)C5CC5)cn4n3)c2)c1 . Reported %Inh? 12

Cool, now Cc1ccc(C(=O)Nc2ccc(Nc3ccnc4cc(-c5nccs5)ccc34)cc2O)cc1.Cl [GW494702] 0

Cool, now CN(C)Cc1ccc(-c2ccc3c(Nc4ccc(Oc5ccccn5)cc4)ccnc3c2)o1 [GW567148] 0

###

Tested on: CSNK1A1L
Details: concentration: 1 μM, replicates: in singlicate; n = 1
endpoint.name: %Inh (%)
Give the quantity in %, number only.

Guide cases for %Inh, answers given:
given.smiles	%Inh [%]
O=C(Nc1n[nH]c2cc(-c3ccoc3)ccc12)C1CC1	5
CN(C)Cc1ccc(-c2ccc3c(Nc4ccc(Oc5ccccn5)cc4)ccnc3c2)o1	9

Could you now look at the following compound, please?
Item under review: COc1cc(Nc2ncc3c(C)nc(-c4cc5ccccc5[nH]4)n3n2)cc(OC)c1OC . Reported %Inh? 0
